Source listed as PubChem BioAssay AID629.

target under test: Estrogen receptor (Homo sapiens) (UniProt P03372)
Sequence (P03372 whole entry, looked up, the tested form may be a part): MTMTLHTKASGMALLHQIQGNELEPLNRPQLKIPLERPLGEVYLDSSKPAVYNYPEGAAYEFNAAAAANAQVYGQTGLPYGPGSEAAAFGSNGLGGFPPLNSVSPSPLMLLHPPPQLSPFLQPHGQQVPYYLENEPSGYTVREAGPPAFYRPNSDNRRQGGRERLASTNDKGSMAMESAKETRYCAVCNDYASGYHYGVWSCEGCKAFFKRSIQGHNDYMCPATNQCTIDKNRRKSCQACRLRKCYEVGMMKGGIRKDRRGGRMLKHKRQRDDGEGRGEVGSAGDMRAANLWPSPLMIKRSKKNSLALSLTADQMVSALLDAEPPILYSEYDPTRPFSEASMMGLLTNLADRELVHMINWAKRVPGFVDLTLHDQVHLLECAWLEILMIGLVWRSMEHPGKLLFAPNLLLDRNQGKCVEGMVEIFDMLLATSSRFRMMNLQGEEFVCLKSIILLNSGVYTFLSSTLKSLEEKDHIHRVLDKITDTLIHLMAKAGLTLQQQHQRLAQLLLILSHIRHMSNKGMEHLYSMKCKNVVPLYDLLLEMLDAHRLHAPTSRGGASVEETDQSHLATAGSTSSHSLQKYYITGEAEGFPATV
protocol: blockers of SRC-1 peptide recruitment to ERα – biochemical, TR-FRET, ERα LBD, estradiol-bound, primary screen (AID 629);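 further: 0% = receptor plus peptide control and 100% = peptide only without receptor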
measurement setup: TR-FRET ER-alpha LBD / SRC-1 peptide, at 25.6 µM
The whole screen tested about 86,000 compounds, of which about 1,400 (1.6%) were called active. No stated cut-off is given here; in the data, active means inhibition above about 50%; inactive means the rest. What follows is part of a selection rich in actives, with near analogues and random picks from the rest.
Outcomes: 1 (active), -1 (inactive)

molecule: CC1=C(C(=O)Nc2ccccc2)C(c2ccco2)C(C#N)=C(SCC(N)=O)N1 (stereo unspecified)
target under test: Estrogen receptor (Homo sapiens) (UniProt P03372)
label value: -1
//
molecule: O=C(c1cn(-c2ccccc2)nc1-c1cccnc1)N1CCCCC1
target under test: Estrogen receptor (Homo sapiens) (UniProt P03372)
label value: 1
//
molecule: CC1(C)CCc2nc(SCc3ccccc3)c(C#N)cc2C1
target under test: Estrogen receptor (Homo sapiens) (UniProt P03372)
label value: -1
//
molecule: Cc1nnc2sc(-c3ccco3)nn12
target under test: Estrogen receptor (Homo sapiens) (UniProt P03372)
label value: -1
//
molecule: FC(F)(F)c1nnc2sc(-c3ccco3)nn12
target under test: Estrogen receptor (Homo sapiens) (UniProt P03372)
label value: -1
//
molecule: O=C(Cc1ccccc1)Nc1c(C(=O)N2CCCCCC2)cnn1-c1ccccc1
target under test: Estrogen receptor (Homo sapiens) (UniProt P03372)
label value: -1
//
molecule: COc1ccccc1N1CCN(C(=O)c2cn(-c3ccccc3)nc2-c2cccnc2)CC1
target under test: Estrogen receptor (Homo sapiens) (UniProt P03372)
label value: -1
//
molecule: C=C(C)Cn1c(SCC(=O)NCc2ccco2)nc2sc3c(c2c1=O)CCC3
target under test: Estrogen receptor (Homo sapiens) (UniProt P03372)
label value: -1
//
molecule: COc1ccc(-c2nnc(SCC(=O)c3ccco3)n2-c2ccccc2)cc1
target under test: Estrogen receptor (Homo sapiens) (UniProt P03372)
label value: -1
//
molecule: N#Cc1c(NC(=O)CSc2nc3ccccc3c(=O)n2Cc2ccco2)sc2c1CCCC2
target under test: Estrogen receptor (Homo sapiens) (UniProt P03372)
label value: 1
//
molecule: COc1ccc(-n2c(SCC(=O)Nc3sc4c(c3C#N)CCCC4)nnc2-c2ccc(O)cc2)cc1
target under test: Estrogen receptor (Homo sapiens) (UniProt P03372)
label value: 1

* * *

target under test: Estrogen receptor (Homo sapiens)
protocol: blockers of SRC-1 peptide recruitment to ERα – biochemical, TR-FRET, ERα LBD, estradiol-bound, primary screen (AID 629);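 further: 0% = receptor plus peptide control and 100% = peptide only without receptor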
measurement setup: TR-FRET ER-alpha LBD / SRC-1 peptide, at 25.6 µM, stronger effect = higher value
Out of some 86,000 compounds screened, about 1,400 (1.6%) were called active. The full list was thinned out, with actives kept by preference.
Measured inhibition of individual entries
observation type: inhibition (%)

structure string: O=C1CCCc2nn(-c3ccccc3)nc21
observation type: inhibition
unit abbreviation: %
result: -5.5
//
structure string: COc1ccc(C(=O)Cc2cnn(-c3ccccc3)c2)c(O)c1
observation type: inhibition
unit abbreviation: %
result: -7.1
//
structure string: Cc1cc(C)c2cc(CN(Cc3nnnn3Cc3ccc(F)cc3)C3CCCC3)c(=O)[nH]c2c1
observation type: inhibition
unit abbreviation: %
result: 7.55
//
structure string: O=C(NCCN1CCN(Cc2ccccc2)CC1)c1cc2c(=O)[nH]c3ccccc3c2s1
observation type: inhibition
unit abbreviation: %
result: 24.2
//
structure string: CCN(CC)CC(=O)c1c[nH]c2ccc(OC)cc12
observation type: inhibition
unit abbreviation: %
result: -8.61
//
structure string: CCOC(=O)c1ccc2c(c1)nc(SCC(=O)NC(C)C)n2CC
observation type: inhibition
unit abbreviation: %
result: 26.4

* * *

target under test: Estrogen receptor (Homo sapiens) (UniProt P03372)
protocol: blockers of SRC-1 peptide recruitment to ERα – biochemical, TR-FRET, ERα LBD, estradiol-bound, primary screen (AID 629);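 further: 0% = receptor plus peptide control and 100% = peptide only without receptor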
measurement setup: TR-FRET ER-alpha LBD / SRC-1 peptide, at 25.6 µM
Out of some 86,000 compounds screened, about 1,400 (1.6%) were called active. Cut-off read from the data, not from the text of the source: active = inhibition above about 50%; inactive = the rest. This is one part of a sample in which actives are shown more often than they occur.
Outcomes: Y for active, N for inactive

molecule: CCOc1ccc(-c2nnc(-c3ccco3)o2)cc1
label value: N

molecule: Cc1ccc(OCC(=O)Nc2ccc(-c3nnc(-c4ccco4)o3)cc2)cc1
label value: Y

molecule: CC(C)(C)c1ccc(C(=O)NCC(=O)OCN2C(=O)c3ccccc3C2=O)cc1
label value: N

molecule: COc1ccc(CC(=O)Nc2ccc(-c3nnc(-c4ccc(C)cc4)o3)cc2)cc1
label value: N

molecule: CS(=O)(=O)n1nc(-c2ccccc2)nc1NCc1ccco1
label value: N

molecule: COC(=O)c1cccc(N(C(=O)c2ccco2)C(C(=O)NC2CCCC2)c2ccco2)c1 (stereo unspecified)
label value: N

* * *

target under test: Estrogen receptor (Homo sapiens) (UniProt P03372)
protocol: blockers of SRC-1 peptide recruitment to ERα – biochemical, TR-FRET, ERα LBD, estradiol-bound, primary screen (AID 629);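 further: 0% = receptor plus peptide control and 100% = peptide only without receptor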
measurement setup: TR-FRET ER-alpha LBD / SRC-1 peptide, at 25.6 µM
Out of some 86,000 compounds screened, about 1,400 (1.6%) were called active. Cut-off read from the data, not from the text of the source: active = inhibition above about 50%; inactive = the rest. Many of the other results were omitted from the sample, so actives are more common in it than they were.
Classes used: Y (active), N (inactive)

molecule: O=C(c1cc2c(s1)CCC2)N1CCN(c2ccccc2)CC1
label value: Y
--
molecule: O=C(CN1CCN(C(=O)c2ccco2)CC1)Nc1ccc2c(c1)OCO2
label value: N
--
molecule: COc1ccc(OC)c2c1sc(=NC(=O)CN1C(=O)CCC1=O)n2C
label value: N
--
molecule: C=C(C)CNC(=S)/N=c1\scc(C)n1CC
label value: Y
--
molecule: O=C(NCc1ccco1)c1cccn2c(=O)c3cc(Br)ccc3nc12
label value: Y
--
molecule: CS(=O)(=O)N(CC(=O)N1CCN(Cc2ccc3c(c2)OCO3)CC1)c1ccc2c(c1)OCO2
label value: N
--
molecule: O=C(Nc1ccccc1)Nc1ccccc1C(=O)NCc1ccco1
label value: N
--
molecule: CCOc1cc(C(=O)Nc2c(C)ccc3nsnc23)cc(OCC)c1OCC
label value: N
--
molecule: OC(CN=c1sc2ccccc2n1CC(O)COc1ccccc1)COc1ccccc1 (stereo unspecified)
label value: N
--
molecule: COc1cc(-c2nc(-c3ccncc3)no2)cc(OC)c1OC
label value: N
--
molecule: Cc1ccc2[nH]c(=O)c(-c3nc4c(C)cccn4c3NCc3ccco3)cc2c1
label value: Y
--
molecule: O=C(c1cc2sccc2n1Cc1ccc(F)cc1)N1CCc2ccccc21
label value: N
--
molecule: COc1ccc(C)c2sc(=NC(=O)c3ccc(C#N)cc3)n(C)c12
label value: Y
--
molecule: O=C(Nc1nc(-c2ccncc2)cs1)C1COc2ccccc2O1 (stereo unspecified)
label value: N
--
molecule: CCc1nnc(NC(=O)CSc2nc3ccccc3c(=O)n2CCCOC)s1
label value: N
--
molecule: Cc1nc2ccc(C(=O)N3CCN(c4ccccc4)CC3)cc2s1
label value: N
--
molecule: O=S(=O)(NN=C1CCCCCCC1)c1ccc(Br)cc1
label value: N
--
molecule: CN1CCc2c(sc3c2c(NCc2ccco2)nc2nnnn23)C1
label value: Y
--
molecule: O=C(Nc1nc(-c2ccc3c(c2)OCO3)cs1)c1ccncc1
label value: Y
--
molecule: COc1ccc(S(=O)(=O)NCc2ccc(C(=O)N(C)Cc3ccco3)cc2)cc1
label value: N
--
molecule: CCNCc1cc2cc(C)ccc2[nH]c1=O
label value: N
--
molecule: Cc1nc(NC(=O)C2CCCCC2)sc1C
label value: N
--
molecule: Cc1cccc(N(C(=O)c2ccc(CN3CCOCC3)o2)C(C(=O)NC2CCCCC2)c2ccc(F)cc2)c1 (stereo unspecified)
label value: N
--
molecule: COc1ccc(-c2ccc(-c3noc(-c4ccncc4)n3)c(OC)n2)cc1
label value: Y
--
molecule: Cn1c(=NC(=O)C2CC2)sc2cc(F)cc(F)c21
label value: N
--
molecule: CCn1c(=O)c(=O)n(CC)c2cc(S(=O)(=O)N3CCc4ccccc43)ccc21
label value: N
--
molecule: CCOc1cc(NC(=O)c2ccco2)c(OCC)cc1NC(=O)COc1ccccc1
label value: Y
--
molecule: c1ccc(-c2nc(NCc3ccco3)c3ccccc3n2)cc1
label value: N
--
molecule: CC(C)(C)C(=O)Cn1c(NCCO)nc2ccccc21
label value: N
--
molecule: COC(=O)c1cc2nc(-c3ccccc3)cc(C(F)(F)F)n2n1
label value: N
--
molecule: COC(=O)c1cc(OC)ccc1-c1ccc(OC)cc1
label value: N
--
molecule: O=C(NCc1ccco1)c1cc(-c2cccnc2)nc2ccc(Cl)cc12
label value: N
--
molecule: O=C(CSCc1c(F)cccc1Cl)NCC1CCCO1 (stereo unspecified)
label value: N
--
molecule: COc1ccc(Cc2nnc(NC(=O)Cc3cccs3)s2)cc1
label value: Y
--
molecule: Cc1ccc(S(=O)(=O)Oc2ccc(/C=N/NC(=O)c3c(Cl)cnn3C)cc2)cc1
label value: N
--
molecule: C=CCO/N=C(\C)c1c(O)c(C)c(-c2ccccc2)n(-c2ccccc2)c1=O
label value: N
--
molecule: O=C(Nc1ccc2c(c1)OCCO2)c1ccncc1
label value: N
--
molecule: COC(=O)c1cnn2c(C(F)(F)F)cc(-c3ccco3)nc12
label value: Y
--
molecule: CCOc1ccc2c(c1)C(c1ccc(C)cc1)=NNC(c1ccc(C)cc1)=N2
label value: N
--
molecule: COc1ccc(Cc2nnc(NS(=O)(=O)Cc3ccccc3)s2)cc1
label value: N
--
molecule: CCCCCCc1cc2cc(-c3nnc(-c4ccccc4)o3)c(=O)oc2cc1O
label value: Y
--
molecule: O=C(N/N=C\c1cccc(Br)c1)c1ccccc1-n1cccc1
label value: N
--
molecule: Cc1ccc2c(c1)sc1ncc(NC(=O)c3ccccc3)c(=O)n12
label value: Y
--
molecule: Cc1ccc(NC(=O)CSCC(=O)N2CCOCC2)cc1
label value: N
--
molecule: CS(=O)(=O)N(CC(=O)NCc1ccco1)c1ccc2c(c1)OCO2
label value: Y
--
molecule: N#CC(=C1CCCC1)c1nc(-c2ccc(Cl)cc2)cs1
label value: N
